cell count values by entry
# assay-text: inhibitors of TNFa-induced NFkB p65 translocation, primary screen, imaging, HUVEC, MLSMR starter and 10KST1 sets (AID 438);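 further: compound added about 3h40 before a 20 min TNFalpha stimulation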
# measurement-context: HUVEC TNFa-induced p65 nuclear translocation; measured here: nuclei count (cytotoxicity indicator), at 2.08 µM
readout-name: cell count

- O=C(CSc1nnc2ccccn12)NCCN1C(=O)CSC1=O: 701
- CC1=C(C(=O)OC2CCCCCC2)C(c2ccc(C)o2)C2=C(CCCC2=O)N1 (centres undefined): 420
- Cc1cc(NS(=O)(=O)c2ccccc2)no1: 662
- CCCn1c(C)cc(C(=O)COc2ncnc3sccc23)c1C: 312
- N#CC1=C(SCC(=O)NC23CC4CC(CC(C4)C2)C3)NC(=O)C(C#N)C12CCCCC2 (centres undefined): 755
- Cc1cc2ccccc2c(=O)n1CC(=O)N(C)c1ccc(F)cc1: 629
- Cn1c(=O)c2c(nc(CN3CCOCC3)n2CC(O)CO)n(C)c1=O (centres undefined): 474
- CCOC(=O)C1=C(C)N=C2SC(C)C(=O)N2C1c1ccc(C(=O)OC)cc1 (centres undefined): 701
- Cc1cc(C(=O)O)c(CSc2ncn[nH]2)o1: 652
- COC(=O)CSc1nc(N)nc(C)c1Br: 688
- C=C(C)CN(CC)CCC(=O)Nc1ccc(OC)cc1OC: 486
- CCOc1ccc(NS(=O)(=O)c2ccc(OCC(=O)N3CCCC3)cc2)cc1: 422
- O=C1c2ccccc2C(Nc2ccc(-c3nc4ccccc4[nH]3)cc2)N1Cc1ccco1 (centres undefined): 701
- O=C(Nc1ccc2nc(-c3cccs3)[nH]c2c1)c1ccco1: 334
- Cc1cccc(OCCN2CSC(=S)N(C)C2)c1: 542
- CSc1nc(C)c2c(c1C#N)CCCC2: 507
- CCNc1sc(C(=O)c2cccs2)c(N)c1C#N: 583
- c1ccc(-c2cc(N3CCCCC3)ncn2)cc1: 327
- Cc1coc2cc3oc(=O)c4c(c3cc12)CCC4: 714
- COc1ccc2c(c1OC)C(=O)OC2c1c(O)nc(SC)n(-c2ccccc2)c1=O (centres undefined): 494
- COc1ccc(OC)c(S(=O)(=O)N2CCC(C(=O)NCc3ccccc3OC)CC2)c1: 782
- Cc1ccc(CSC2=NCCN2C(=O)C2CC2)cc1: 221
- CCOC(=O)C(NC(=O)c1ccc(OC)cc1)(N1CCOCC1)C(F)(F)F (centres undefined): 551
- C=CCn1c(=N)c(C(=O)OCC)cc2c(=O)n3cccc(C)c3nc21: 614

---

# assay-text: inhibitors of E-selectin induction by TNFa, primary screen, imaging, HUVEC, immunofluorescence, MLSMR starter and 10KST1 sets (AID 487);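 further: signal is fraction of cell area covered by stained E-selectin grains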
# measurement-context: HUVEC TNFalpha-induced E-selectin immunofluorescence imaging, at 2 µM; stronger effect = higher value
readout-name: inhibition (%)

• Cc1ccc(-n2c(=O)c(C#N)cc3c(=O)n4ccccc4nc32)cc1 = -31
• CCOC(=O)c1c2c(c(=S)n(-c3ccccc3)c1N)CCC2 = -65.1
• CCC1(C)Cc2c(sc(NC(=O)CCC(=O)O)c2C#N)CO1 (stereo not drawn) = -47
• CCCC(=O)Nc1nnc(CC(=O)N2CCCC2)s1 = -55
• COc1ccc(-c2nn3c(-c4cccc(C)c4)nnc3s2)cc1OC = -9.3
• C=CCc1cc(OC)ccc1OCC(O)CN1CCN(c2ccc(OC)cc2)CC1 (stereo not drawn) = -16.2
• CCOC(=O)Cc1[nH]nc2c1C(c1cc(OC)ccc1OC)C(C#N)=C(N)O2 (stereo not drawn) = -13.2
• CC1CCC(NC(=O)C2(C)CCC(=O)N2Cc2cccnc2)CC1 (stereo not drawn) = -7.7
• COc1ccc(C2C(C(=O)c3sc(C)nc3C)=C(O)C(=O)N2CCN(C)C)cc1OC (stereo not drawn) = 10.8
• CCOC(=O)c1cc2c(=O)n3cccc(C)c3nc2n(CC2CCCO2)c1=NC(C)=O (stereo not drawn) = -17.2
• CC(=O)c1cccc(S(=O)(=O)N2CCC(n3nnc4cc(F)ccc43)CC2)c1 = -14.7
• Cc1ccccc1Cc1c(C)nc2c(C(=O)N3CCN(Cc4ccc5c(c4)OCO5)CC3)cnn2c1C = -11.8
• CC(C)CN(C(=O)c1ccc(=O)n(C)n1)c1nc2ccccc2s1 = -5.9
• Cc1ccc2nc(NC(=O)C3CCCN(S(=O)(=O)c4cnc[nH]4)C3)sc2c1 (stereo not drawn) = -42.7
• O=C(O)C1CC=CCC1C(=O)Nc1ccc(S(=O)(=O)N2CCCc3ccccc32)cc1 (stereo not drawn) = -43.1
• O=S(=O)(Nc1ccc2c(c1)OCO2)c1ccc(Br)s1 = 8.4
• COc1ccc(NC(=O)CCS(=O)(=O)c2ccc(OC)cc2)cc1 = -24
• CCCOC(=O)CSc1nc(N)c(C#N)c(CC)c1C#N = -97.1
• COC(=O)c1[nH]c2ccc(Cl)cc2c1NC(=O)C1CC1 = -43.6
• O=C(CSc1nnc(CNC(=O)c2cccs2)o1)Nc1cccc(C(F)(F)F)c1 = -14.2
• O=C(CCNS(=O)(=O)c1cccc2nsnc12)NCc1cccs1 = -34.5
• Cn1c(N)c(C#N)c2c(c1=S)CSC(C)(C)C2 = -64.2
• CCCCNc1cc(C)oc(=O)c1C(C)=O = -81
